Where do the numbers come from? From patent EP4610262A1.

# Test Target: CDK9 (Homo sapiens)
# Sequence (P50750 whole entry): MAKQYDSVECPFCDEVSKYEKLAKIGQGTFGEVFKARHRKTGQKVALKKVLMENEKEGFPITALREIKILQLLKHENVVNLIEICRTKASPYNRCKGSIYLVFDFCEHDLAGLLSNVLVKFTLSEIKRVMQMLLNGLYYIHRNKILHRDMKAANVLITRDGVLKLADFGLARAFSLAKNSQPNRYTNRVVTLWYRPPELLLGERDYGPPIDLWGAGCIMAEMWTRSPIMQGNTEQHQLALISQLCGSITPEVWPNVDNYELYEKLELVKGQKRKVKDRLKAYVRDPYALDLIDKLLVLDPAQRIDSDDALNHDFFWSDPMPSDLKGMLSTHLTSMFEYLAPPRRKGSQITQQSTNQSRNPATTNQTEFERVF
# Sequence (O60563 whole entry partner): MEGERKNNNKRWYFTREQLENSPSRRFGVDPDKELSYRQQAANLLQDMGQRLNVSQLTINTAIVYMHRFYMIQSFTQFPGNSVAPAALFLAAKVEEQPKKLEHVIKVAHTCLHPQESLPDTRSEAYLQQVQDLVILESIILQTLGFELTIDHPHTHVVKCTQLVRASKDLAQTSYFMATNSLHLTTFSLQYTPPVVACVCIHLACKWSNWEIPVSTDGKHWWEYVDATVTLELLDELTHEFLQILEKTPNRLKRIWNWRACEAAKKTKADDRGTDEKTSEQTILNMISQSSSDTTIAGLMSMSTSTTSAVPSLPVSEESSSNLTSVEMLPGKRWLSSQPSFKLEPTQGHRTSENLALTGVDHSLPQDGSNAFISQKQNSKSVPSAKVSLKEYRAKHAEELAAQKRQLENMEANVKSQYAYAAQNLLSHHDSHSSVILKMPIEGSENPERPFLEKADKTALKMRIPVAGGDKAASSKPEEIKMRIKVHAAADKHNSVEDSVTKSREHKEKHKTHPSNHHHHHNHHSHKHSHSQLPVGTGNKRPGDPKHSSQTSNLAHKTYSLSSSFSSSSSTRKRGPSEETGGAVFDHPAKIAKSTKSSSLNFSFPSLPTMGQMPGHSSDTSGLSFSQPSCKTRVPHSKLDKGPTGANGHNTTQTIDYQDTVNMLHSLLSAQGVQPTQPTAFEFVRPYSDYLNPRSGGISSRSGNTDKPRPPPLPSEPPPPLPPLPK
# Assay: Inhibition of CDK9 kinase activity (caliper mobility shift assay)
# Format: biochemical
# Experimental Conditions: 10 concentrations from 10 µM, three-fold dilutions
# Procedure: Compounds were tested at a concentration of 10 nM with detection in duplicate wells, or tested at 10 concentrations starting from 10 µM with three-fold serial dilutions, with detection in duplicate wells. The inhibitory effect of the compounds on the activity of CDK9 protein kinase was detected by the caliper mobility shift assay method. […] The conversion rate was read with Caliper EZ Reader. […]
pIC50: −log10 of the molar value.
Hi there, I'd appreciate the recorded pIC50 for every entry that follows.

{"Compound": "Cc1nc2sc1-c1nc(ncc1F)Nc1cccc(c1)NC/C=C\\CN2", "pIC50": "6.30 to 7.00"}

Working through the 6 compounds below one at a time, give pIC50 for each.
1. Fc1cnc2nc1-c1cccc(c1)NCCCCNc1cccc(c1)N2
2. Clc1cnc2nc1-c1cccc(c1)OCCCCNCc1cccc(c1)N2
3. CN1CCN(c2ccc3cc2COCCCCCNc2nc(ncc2Cl)N3)CC1
4. Clc1cnc2nc1N1CCC(C1)NCCCNCc1cccc(c1)N2 (stereo not drawn)
5. COc1ccc2cc1-c1nc(ncc1F)Nc1cccc(c1)NC/C=C\CN2
6. Clc1cnc2nc1NCCCCCn1cc(cn1)N2

1. > 7.00
2. > 7.00
3. 6.30 to 7.00
4. 6.00 to 6.30
5. > 7.00
6. 6.30 to 7.00

Working through the 2 compounds below one at a time, give pIC50 for each.
1. Fc1cnc2nc1-c1cccc(c1)NC/C=C\CNc1cccc(c1)N2
2. Clc1cnc2nc1-c1cnn(c1)CC/C=C\CNc1cccc(c1)N2

1. > 7.00
2. > 7.00
